half-life listing for selected compounds.
# Assay method text: Microsomal stability, human liver microsomes (Table 1)
# Assay type: in vitro ADME
# Measurement conditions: liver microsomes; Human: Pooled, 50 donors; read-out: Microsomal Stability t1/2 (converted)

Observe how each entry below is paired with its result.
CC(C)(C)OC(=O)c1cc(N)c(NC23CC4CC(CC(C4)C2)C3)cc1Cl	> 2 h
Cc1noc(-c2ccc(NC34CC5CC(CC(C5)C3)C4)c(NC3CCCCC3)c2)n1	> 2 h
CCOC(=O)c1ccc(NC2CCCCC2)c(N)c1 [Fer-1, Ferrostatin-1, reference compound]	0.19 h

Task: State the recorded half-life for this entry: Nc1cc(-c2ncco2)ccc1NC1CCCCC1
Output: > 2 h
